Molecular target: human GluN1^FA,TL/GluN3A receptors (Homo sapiens)
Construct: Human GluN3A (NP_597702.2) and rat GluN3B (NP_579842.2) were synthesized and subcloned into SP6 plasmids; expressed in transfected cells; host or cells: Xenopus laevis oocytes, cRNA injection (GluN1:GluN3 1:3)
Sequence (Q8TCU5 24-1115, other chains not shown): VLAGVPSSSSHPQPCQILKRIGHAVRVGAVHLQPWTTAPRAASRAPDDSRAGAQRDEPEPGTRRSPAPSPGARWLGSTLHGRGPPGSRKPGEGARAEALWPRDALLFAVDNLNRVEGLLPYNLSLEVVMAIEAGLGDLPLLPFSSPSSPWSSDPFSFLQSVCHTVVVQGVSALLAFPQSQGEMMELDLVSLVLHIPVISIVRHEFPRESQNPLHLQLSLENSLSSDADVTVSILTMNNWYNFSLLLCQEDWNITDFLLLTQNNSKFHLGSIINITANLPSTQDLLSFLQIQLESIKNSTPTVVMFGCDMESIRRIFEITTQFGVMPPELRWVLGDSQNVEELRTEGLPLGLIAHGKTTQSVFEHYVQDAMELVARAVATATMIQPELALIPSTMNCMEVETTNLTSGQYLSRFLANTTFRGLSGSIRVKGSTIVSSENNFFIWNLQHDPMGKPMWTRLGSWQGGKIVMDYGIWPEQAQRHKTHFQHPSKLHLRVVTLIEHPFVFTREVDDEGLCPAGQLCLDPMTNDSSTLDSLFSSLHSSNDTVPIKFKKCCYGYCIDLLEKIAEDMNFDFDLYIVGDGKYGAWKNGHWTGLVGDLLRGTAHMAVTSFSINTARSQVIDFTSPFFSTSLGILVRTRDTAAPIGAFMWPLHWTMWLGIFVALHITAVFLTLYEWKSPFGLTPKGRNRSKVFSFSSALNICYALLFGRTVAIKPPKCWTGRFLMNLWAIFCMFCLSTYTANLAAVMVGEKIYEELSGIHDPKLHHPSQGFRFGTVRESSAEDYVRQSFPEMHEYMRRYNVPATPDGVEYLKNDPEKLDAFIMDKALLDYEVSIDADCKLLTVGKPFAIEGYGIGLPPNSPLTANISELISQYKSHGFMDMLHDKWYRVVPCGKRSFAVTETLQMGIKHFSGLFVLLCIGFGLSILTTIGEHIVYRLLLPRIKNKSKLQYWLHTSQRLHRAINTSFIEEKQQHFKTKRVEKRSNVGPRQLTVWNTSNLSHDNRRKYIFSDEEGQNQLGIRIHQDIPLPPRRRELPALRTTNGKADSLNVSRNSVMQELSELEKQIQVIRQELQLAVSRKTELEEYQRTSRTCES
Test: Two-electrode voltage-clamp recordings of GluN1^FA,TL/GluN3A receptors in Xenopus oocytes
Type: cell-based
Conditions: pH 7.4; holding potential −40 mV; read-out: EC50, (95% CI) GluN1^FATL/GluN3A
Source text: cDNA encoding human wild-type (WT) GluN1-1a (GenBank accession numbers NP_015566, hereafter GluN1) and rat GluN1-1a (NP_058706.1) were synthesized and subcloned into pGEMHE plasmid; some experiments used the rat splice variant GluN1-4a (NP_001257531.1). Human GluN3A (NP_597702.2) and rat GluN3B (NP_579842.2) were synthesized and subcloned into SP6 plasmids. […]
Would you mind telling me the reported pIC50 of each entry?
Give bare numbers, as −log10 of the molar value.

Batch lookup, pIC50 per entry.
1. COc1ccc(OCC(c2ccc(OC)cc2)N2Cc3ccccc3C2=O)cc1 (single isomer, unassigned; (-)) [(−) EU1180-438]
2. COc1ccc(OCC(c2ccc(OC)cc2)N2Cc3ccccc3C2=O)cc1 (racemic) [EU1180-438]

**Result**
[4.89, 5.46]

**Query** # return pIC50 of COc1ccc(OCC(c2ccc(OC)cc2)N2Cc3ccccc3C2=O)cc1 (single isomer, unassigned; (+)) [(+) EU1180-438] (system: human GluN1^FA,TL/GluN3A receptors (Homo sapiens))
**Result** 5.15
